Tested on: MCF-7/ADR (Taxol Resistant) human breast carcinoma
Test name: Drug resistant cell line pair, cytotoxicity (Example 10B)
Type: cell-based
Measurement setup: Homo sapiens, NCI/ADR-RES, read-out: MCF-7/ADR Resistant IC 50 nM
Observed property: IC50 (nM)
Numbers only, in nM.

Query: System MCF-7/ADR (Taxol Resistant) human breast carcinoma. Read-out IC50. Item CC(C)(C)c1[nH]cnc1/C=c1\[nH]c(=O)/c(=C/c2ccccc2)[nH]c1=O [KPU-2, tBu-dehydro-PLH] . Report value.
Response: 27.4

###

Observed property: melting point

These solved cases illustrate the format of a correct answer.
>>> result("CC(C)(C)c1ocnc1/C=c1\\[nH]c(=O)/c(=C/c2cccc(OC(F)(F)F)c2)[nH]c1=O [KPU-216]")
"187 to 189 °C"
>>> result("CC(C)(C)c1ocnc1/C=c1\\[nH]c(=O)/c(=C/c2cccs2)[nH]c1=O")
"211 to 213 °C"
>>> result("C=Cc1cccc(/C=c2\\[nH]c(=O)/c(=C/c3ncoc3C(C)(C)C)[nH]c2=O)c1")
"150 to 152 °C"

Look at each compound and report its melting point.
1. CC(C)(C)c1ocnc1/C=c1\[nH]c(=O)/c(=C/c2cccc(C(F)(F)F)c2)[nH]c1=O
2. CC(C)(C)c1ocnc1/C=c1\[nH]c(=O)/c(=C/c2ccccc2Cl)[nH]c1=O [KPU-204]
3. CC(C)(C)c1ocnc1/C=c1\[nH]c(=O)/c(=C/c2ccoc2)[nH]c1=O [KPU-217]
4. CC(C)(C)c1ocnc1/C=c1\[nH]c(=O)/c(=C/c2ccc3nsnc3c2)[nH]c1=O
5. CC(C)(C)c1ocnc1/C=c1\[nH]c(=O)/c(=C/c2cccc(C(=O)c3ccccc3)c2)[nH]c1=O

Response:
1: 243 to 245 °C; 2: 166 to 168 °C; 3: 164 to 166 °C; 4: 234 to 236 °C; 5: 151 to 153 °C

###

Record form. Attribute: log10 EC50. Fill in for each entry.
System: HT-29 cells
Test name: Additional cytotoxicity assays, resazurin (Table 3.1)
Type: cell-based, human
Measurement setup: Homo sapiens, HT-29; Table 3.1; read-out: EC50 (M) Mean
log10 EC50, M

The following compounds have reported results that may help.
>>> result_number("Cn1cccc1/C=c1\\[nH]c(=O)/c(=C/c2nc[nH]c2C(C)(C)C)[nH]c1=O [Compound 2414, tBu-delta-PLH-N-Me-2-pyrrole]")
-6.93
>>> result_number("COc1ccc(/C=c2\\[nH]c(=O)/c(=C/c3nc[nH]c3C(C)(C)C)[nH]c2=O)cc1O [Compound 2408, tBu-delta-PLH-3-OH-4-OMe]")
-5.13
>>> result_number("C=CC(C)(C)c1[nH]cnc1/C=c1\\[nH]c(=O)/c(=C/c2ccccc2)[nH]c1=O [Compound 2352, Dehydrophenylahistin]")
-7.37
>>> result_number("CC(C)(C)c1[nH]cnc1/C=c1\\[nH]c(=O)/c(=C/c2cc(Br)cs2)[nH]c1=O [Compound 2423, tBu-delta-PLH-4-Br-2-thionyl]")
-6.77
>>> result_number("Cc1cccc(/C=c2\\[nH]c(=O)/c(=C/c3nc[nH]c3C(C)(C)C)[nH]c2=O)c1C [Compound 2439, tBu-delta-PLH-2,3-di-Me]")
-8.53
>>> result_number("Cc1ccc(C)c(/C=c2\\[nH]c(=O)/c(=C/c3nc[nH]c3C(C)(C)C)[nH]c2=O)c1 [Compound 2442, tBu-delta-PLH-2,5-diMe]")
-7.05

Provide the reported log10 EC50 of each entry below, same order.
1. C=CC(C)(C)c1[nH]cnc1/C=C1\NC(=O)[C@H](Cc2ccccc2)NC1=O [Compound 2350, reference compound]
2. CC(C)(C)c1[nH]cnc1/C=c1\[nH]c(=O)/c(=C/c2ccccc2N)[nH]c1=O [Compound 2457, tBu-delta-PLH-2-NH2]
3. COc1cccc2cc3c(=O)[nH]/c(=C\c4nc[nH]c4C(C)(C)C)c(=O)n3c12 [Compound 2374, tBu-delta-PLH-cyclized-3-MeO]
4. CC(C)(C)c1ocnc1/C=c1\[nH]c(=O)/c(=C/c2ccccc2)[nH]c1=O [Compound 2421, tBu-delta-PLH-oxazole]
5. Cc1ccc(/C=c2\[nH]c(=O)/c(=C/c3nc[nH]c3C(C)(C)C)[nH]c2=O)s1 [Compound 2378, tBu-delta-PLH-5-Me-2-thienyl]
6. Cc1ccsc1/C=c1\[nH]c(=O)/c(=C/c2nc[nH]c2C(C)(C)C)[nH]c1=O [Compound 2379, tBu-delta-PLH-3-Me-2-thienyl]

Response:
1: -6.40; 2: -6.36; 3: -5.16; 4: -7.65; 5: -7.07; 6: -7.33
